# experimental.target: human GOAT (Homo sapiens (Human), UniProt Q96T53)
# Sequence (Q96T53 whole entry): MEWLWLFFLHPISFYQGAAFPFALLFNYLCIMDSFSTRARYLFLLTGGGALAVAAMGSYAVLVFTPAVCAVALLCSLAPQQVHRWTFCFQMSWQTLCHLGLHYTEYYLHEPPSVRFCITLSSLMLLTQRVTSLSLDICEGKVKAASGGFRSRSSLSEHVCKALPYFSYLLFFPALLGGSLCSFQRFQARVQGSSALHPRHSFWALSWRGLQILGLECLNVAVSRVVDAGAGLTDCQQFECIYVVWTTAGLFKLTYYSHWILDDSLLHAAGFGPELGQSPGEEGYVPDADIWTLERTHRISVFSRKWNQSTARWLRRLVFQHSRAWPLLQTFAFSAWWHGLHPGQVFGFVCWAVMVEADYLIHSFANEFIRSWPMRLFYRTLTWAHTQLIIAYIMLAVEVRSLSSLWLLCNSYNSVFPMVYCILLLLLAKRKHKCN
# test: Determination of hGOAT activity in HEK293 cells after incubation with test compound (acyl-ghrelin ELISA)
# protocol.conditions: HEK293 cells stably expressing human GOAT and preproghrelin; 5 h incubation with octanoate-BSA; acyl-ghrelin in medium by ELISA
Reported log10 of IC50 values for a set of compounds
Base-10 log of IC50, unit nM.

Cc1nc2nonc2c(N)c1Cn1ccc(-c2nn(C)c3ccccc23)n1 :: -1.40
Cc1nc2nonc2c(N)c1Cn1ccc(NC(=O)C(NC(=O)OCc2ccccc2)C(C)C)n1 (stereo not drawn) :: 0.51
Cc1nc2nonc2c(N)c1Cn1ccc(-c2cccc(C(F)(F)F)n2)n1 :: -1.55
Cc1nc2nonc2c(N)c1Cn1ccc(-c2cnn3cccnc23)n1 :: -0.82
Cc1nc2nonc2c(N)c1Cn1ccc(-c2ccccc2F)n1 :: -1.46

Query :: Report log10 of IC50 for Cc1nc2nonc2c(N)c1Cn1cc(-c2cnn(C)c2)cn1 please.
Result :: 0.56

Query :: Report log10 of IC50 for Cc1nc2nonc2c(N)c1Cn1ccc(-c2ccc(C#N)c(F)c2)n1 please.
Result :: -0.42

Query :: Report log10 of IC50 for Cc1nc2nonc2c(N)c1Cn1ccc(-c2cncn2C)n1 please.
Result :: -0.43

Query :: Report log10 of IC50 for Cc1nc2nonc2c(N)c1Cn1cc(-c2ccn[nH]2)cn1 please.
Result :: 0.75

Data origin: patent US11136337B2
